Assay: Brain entry after systemic administration in mice
Assay type: in vivo, mouse
Settings: inferred from Table 3
REPORTED ENDPOINT: entry into the brain after systemic administration

                      smiles_representation           result
0  NC(=O)c1cccc(-c2cc(OC(=O)NC3CCCCC3)ccc2F)c1  enter the brain
1  COc1ccc(OC(=O)NC2CCCCC2)cc1-c1cccc(C(N)=O)c1  enter the brain
2  Cc1ccc(OC(=O)NC2CCCCC2)cc1-c1cccc(C(N)=O)c1  enter the brain

====

Target: FAAH (Rattus norvegicus)
Construct: Wistar rats were typically used for the FAAH studies; from tissue; host or cells: Wistar rat
Sequence (P97612 whole entry): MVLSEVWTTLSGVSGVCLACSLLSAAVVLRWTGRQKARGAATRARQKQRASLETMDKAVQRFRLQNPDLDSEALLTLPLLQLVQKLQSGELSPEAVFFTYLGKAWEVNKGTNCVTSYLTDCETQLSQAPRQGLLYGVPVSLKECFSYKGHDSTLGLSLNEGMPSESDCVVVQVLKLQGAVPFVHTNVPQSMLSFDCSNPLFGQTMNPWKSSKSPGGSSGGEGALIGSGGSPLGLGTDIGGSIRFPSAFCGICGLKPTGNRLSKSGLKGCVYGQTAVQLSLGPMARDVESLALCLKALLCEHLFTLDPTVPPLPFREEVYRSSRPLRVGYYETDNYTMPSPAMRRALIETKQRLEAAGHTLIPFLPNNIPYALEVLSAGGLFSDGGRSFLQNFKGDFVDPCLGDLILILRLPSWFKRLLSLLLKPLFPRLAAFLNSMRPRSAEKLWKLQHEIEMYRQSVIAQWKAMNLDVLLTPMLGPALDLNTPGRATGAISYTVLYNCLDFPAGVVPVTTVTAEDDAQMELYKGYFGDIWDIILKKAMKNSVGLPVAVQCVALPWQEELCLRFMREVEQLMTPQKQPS
Experiment: In vitro FAAH assay (IC50, Tables 1 and 2)
Format: biochemical
Details: Table 1; in vitro FAAH assay
REPORTED ENDPOINT: IC50
# output: numeric value plus its unit

Note to self: IC50 recorded for CNC(=O)c1cccc(-c2cc(O)cc(OC(=O)NC3CCCCC3)c2)c1 [Compound 2] was 300 pM
